meta.source: patent US20190194299A1

# Target entity: T1, Spike (S) protein of live MERS-CoV EMC/2012 (wild type virus) (MERS-CoV, UniProt K9N5Q8 18-1353)
# T1 sequence: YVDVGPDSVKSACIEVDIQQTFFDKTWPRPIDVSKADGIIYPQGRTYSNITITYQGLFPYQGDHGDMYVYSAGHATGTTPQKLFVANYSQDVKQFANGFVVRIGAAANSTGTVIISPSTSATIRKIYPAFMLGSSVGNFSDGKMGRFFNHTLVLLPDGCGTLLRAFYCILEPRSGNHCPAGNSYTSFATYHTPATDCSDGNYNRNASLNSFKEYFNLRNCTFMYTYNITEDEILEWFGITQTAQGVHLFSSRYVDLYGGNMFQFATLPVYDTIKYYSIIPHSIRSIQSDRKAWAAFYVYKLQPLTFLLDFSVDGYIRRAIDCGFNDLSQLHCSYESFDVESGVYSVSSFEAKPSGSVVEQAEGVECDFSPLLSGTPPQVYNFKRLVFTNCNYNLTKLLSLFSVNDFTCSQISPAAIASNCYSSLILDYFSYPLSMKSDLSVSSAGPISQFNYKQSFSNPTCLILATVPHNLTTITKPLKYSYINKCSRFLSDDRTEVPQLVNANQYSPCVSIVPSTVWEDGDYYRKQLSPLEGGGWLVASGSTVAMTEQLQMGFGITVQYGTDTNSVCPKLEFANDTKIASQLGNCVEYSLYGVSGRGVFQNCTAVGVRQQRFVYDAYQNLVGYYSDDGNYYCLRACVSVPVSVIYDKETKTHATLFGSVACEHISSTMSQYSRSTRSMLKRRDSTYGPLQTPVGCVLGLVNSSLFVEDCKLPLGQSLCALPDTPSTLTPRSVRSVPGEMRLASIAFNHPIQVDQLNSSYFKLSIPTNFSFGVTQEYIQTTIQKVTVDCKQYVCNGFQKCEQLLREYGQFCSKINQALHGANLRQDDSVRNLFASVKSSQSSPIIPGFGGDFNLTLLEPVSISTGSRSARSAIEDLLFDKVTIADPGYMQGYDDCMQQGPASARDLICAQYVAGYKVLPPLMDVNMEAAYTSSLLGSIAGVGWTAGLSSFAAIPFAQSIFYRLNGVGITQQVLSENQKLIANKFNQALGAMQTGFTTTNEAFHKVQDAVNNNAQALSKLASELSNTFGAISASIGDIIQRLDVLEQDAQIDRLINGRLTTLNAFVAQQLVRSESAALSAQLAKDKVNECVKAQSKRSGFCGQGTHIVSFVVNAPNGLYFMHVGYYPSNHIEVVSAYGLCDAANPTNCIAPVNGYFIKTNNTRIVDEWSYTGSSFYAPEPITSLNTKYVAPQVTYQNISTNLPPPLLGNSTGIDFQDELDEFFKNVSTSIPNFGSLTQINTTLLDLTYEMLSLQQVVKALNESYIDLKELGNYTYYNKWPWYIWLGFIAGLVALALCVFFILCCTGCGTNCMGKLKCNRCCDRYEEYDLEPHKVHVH
# Test details: cell-based or functional assay
# IC50 (PRNT50, live wt. virus) per record follows
# unit: µg/mL | format: bare number

Data request, read-out IC50 (PRNT50, live wt. virus), for 1F8 IgG1 (antibody, V domains shown) VH: EVQLVQSGAEVKEPGSSVKVSCKASGGTFGSYAINWVRQAPGQRLEWMGWIDAANGNTKYSQKFQGRVTITGDTSASTAYMELSSLRSEDTAVYYCARDRWMTTRAFDIWGQGTMVTVSS VL: QPVLTQPPSASGTPGQRVTISCSGSSSNIGSNYVFWYQQLPGMAPKLLISRNNQRPSGVPDRFSGSKSGTSASLAISGPQSEDEADYYCAAWDDSLRGPVFGGGTRVTVL
4.05

Entry 3A1 scFvFc (scFv, V domains shown) VH: QVQLVQSGAEVKKPGSSVKVSCKASGGTFSSYAVSWVRQAPGQGLEWVGRIIPIFGKANYAQKFQGRVTITADKSTSTAYMELSSLRPEDTAVYYCARDQGISANFKDAFDIWGQGTTVTVSS VL: ETTLTQSPATLSVSPGERATLSCRASESVGSNLAWYQQKPGQAPSLLIYGASTRATGIPDRFSGSGSGTDFTLTISSLQSEDFAAYYCQQYNNWPLTFGPGTKVEIK has what IC50 (PRNT50, live wt. virus)?
1.46

Name the recorded IC50 (PRNT50, live wt. virus) for 3B11 IgG1 (antibody, V domains shown) VH: QVQLVQSGAEVKKPGSSVKVSCKASGGTFSSYAISWVRQAPGQGLEWMGGIIPIFGTANYAQKFQGRVTITADKSTSTAYMELSSLRSEDTAVYYCARVGYCSSTSCHIGAFDIWGQGTTVTVSS VL: ETTLTQSPGTLSLSPGERATLSCRASQSVSSSIAWYQQKPGQAPRLLMFDSSTRATGIPDRFSGSGSGTDFTLNISSLEPEDFAVYYCQQYSSSPYTFGQGTKLEIK .
3.5
